The entries below come with measured GI50 values attached.
system: CAKI-1 renal; assay: NCI tumour cell line growth inhibition, 48 h
measuredParameter: GI50

1. C=C1c2ccoc2C[C@H]2[C@H]1CC[C@@]1(O)[C@@](C)(C(=O)OC)CCC[C@]21C : 50.2 µM
2. Cc1ccc(C(=O)NC2CCC2)cc1-c1ccc(C(=O)NCC2CC2)cc1 : > 25 µM
3. NS(=O)(=O)c1ccc(/C=C/c2ccc(O)cc2)cc1 : 5.59 µM
4. Nc1c(C(=O)c2cccc(C#CCO)c2)cnn1-c1ccc(F)cc1 : > 25 µM

----------
tested on: OVCAR-4 ovarian; assay: NCI tumour cell line growth inhibition, 48 h
As shown below, each of these molecules has a reported TGI value.
measuredParameter: TGI

1. CCCCCCCCCCCCCCCCCCOCC(O)COP(=O)(O)OCC1OC(n2ccc(N)nc2=O)C(O)C1O (stereo unspecified) : > 100 µM
2. O=C1NOC(c2ccc(O)cc2)(c2ccc(O)cc2)c2ccccc21 : > 100 µM
3. C[C@]12CC[C@@H]3c4ccc(O)cc4CC[C@H]3[C@@H]1Cc1cnc(N)nc12 : > 100 µM
4. COc1cccc(NC(=O)CC(=O)N2N=C(N3c4ccccc4Sc4ccccc43)CC2c2ccccc2)c1 (stereo unspecified) : > 100 µM
5. c1ccc2c(c1)OC(N1CCCC1)c1cnc(N3CCOCC3)nc1-2 (stereo unspecified) : > 100 µM
6. N#Cc1c(-c2ccccc2)c(CN2CCCCC2)c(=O)n2c1[nH]c1ccccc12 : > 100 µM
7. COC(=O)C12OC3CO[Si](C(C)C)(C(C)C)O[Si](C(C)C)(C(C)C)OC3C1Oc1nc(=O)ccn12 (stereo unspecified) : 30.8 µM
8. COc1ccc(NC(=S)c2ccoc2C)cc1CC(=O)OC(C)C : > 100 µM
9. CSc1nc2c(c(=O)[nH]1)N=C(c1ccccc1)CC(c1ccccc1)N2 (stereo unspecified) : 95.2 µM
10. O=C1CC(NCc2ccccc2)c2c(Cl)sc(Cl)c21 (stereo unspecified) : > 87.3 µM
11. CC1(C)CC2CC(CC(C)(C)C2=O)C1=O : > 100 µM
12. COc1ccc2nc3cc(Cl)ccc3c(SCC(=O)Nc3ccccc3-c3ccccc3NC(=O)CSc3c4ccc(Cl)cc4nc4ccc(OC)cc34)c2c1 : > 100 µM
13. COc1ccc(C2=CC(c3ccc(OC)cc3Br)N3C=CSC3=N2)cc1 (stereo unspecified) : 27.3 µM
14. O=CN1CCN(C(=O)c2ccc(Cl)c(Cl)c2)C1=S : 33.6 µM
15. CC1=C(C(=O)N(C)c2ccc(Cl)c(C(=O)OC(C)C)c2)SCCO1 : > 100 µM
16. CCOc1cc2c(c(OCC)c1O)CC[C@@H]1[C@@H]2CC[C@]2(C)[C@@H](O)CC[C@@H]12 : > 100 µM
17. O=C(OCCNC(=O)N1CC1)OCCNC(=O)N1CC1 : > 10 µM
18. CCOC(=O)c1cc2c(n1Cc1cc(OC)c(OC)c(OC)c1)-c1oncc1CCC2 : > 67.4 µM
19. COc1cc([N+](=O)[O-])c(OC)cc1-c1nc2sccn2c1/C=N/N=C(N)N : > 100 µM
20. CCOc1ccc(NC(=O)C(=O)C(C(=O)c2ccc3ccccc3c2)C2OC(=O)c3ccccc32)cc1 (stereo unspecified) : 44.5 µM
21. N#CNC(=NCCc1c[nH]c2ccccc12)Oc1ccccc1 : > 100 µM
22. Cc1nn(-c2ccc([N+](=O)[O-])cc2)c2ncnc(N/N=C/c3ccccc3O)c12 : 4.62 µM
23. CCOC(=O)c1nnc2c(C#N)c(-c3ccccc3)c(C)n2c1N : 43.6 µM
24. CNC(=O)OCc1c2ccncc2c(C)c2c1[nH]c1ccc(OC)cc12 : 1.13 µM
25. Cc1ccc2c(=O)c3ccccc3sc2c1 : > 100 µM
26. COC(=O)Nc1nc2ccc(Oc3cccc(NC(=O)Nc4cc(C(F)(F)F)ccc4F)c3)cc2[nH]1 : > 25 µM
